MEASURED TARGET: CDK2E (Homo sapiens, UniProt P24941)
EXPERIMENTAL PROTOCOL: ADP Glo Kinase assay
Assay type: biochemical
TEST CONDITIONS: 1 µM compound; read-out: % Residual enzymatic activity at 1 µM CDK2E
RECORDED METRIC: remaining activity at 1 µM (%)

Nc1ncnc(Oc2ccc(NC(=O)c3cccn(-c4ccc(F)cc4)c3=O)c(F)c2)c1Cl [Cmpd 5]	92
Nc1ncnc(Oc2ccc(NC(=O)c3cccn(-c4ccc(F)cc4)c3=O)c(Cl)c2)c1Cl [Cmpd 37]	96
Nc1ncnc(Oc2ccc(NC(=O)c3cccn(-c4ccc(Cl)cc4)c3=O)cc2F)c1F [Cmpd 34]	97
Nc1ncnc(Oc2cc(F)c(NC(=O)c3cccn(-c4ccc(F)cc4)c3=O)cc2F)c1F [Cmpd 20]	93
CCOc1ccn(-c2ccc(F)cc2)c(=O)c1C(=O)Nc1ccc(Oc2ncnc(N)c2Cl)c(F)c1 [Cmpd 2]	94
Nc1ncnc(Oc2ccc(NC(=O)c3cccn(-c4ccc(F)cc4)c3=O)cc2)c1Cl [Cmpd 4]	97
Nc1ncnc(Oc2ccc(NC(=O)c3cccn(-c4ccc(Cl)cc4)c3=O)c(F)c2)c1Cl [Cmpd 33]	82
Nc1ncnc(Nc2ccc(NC(=O)c3cccn(-c4ccc(F)cc4)c3=O)cc2F)c1Cl [Cmpd 36]	96
Nc1ncnc(Oc2ccc(NC(=O)c3cccn(-c4ccc(F)cc4)c3=O)cc2F)c1F [Cmpd 1]	99

====

MEASURED TARGET: Mer (Homo sapiens, UniProt Q12866)
Construct: purchased Eurofins Discovery (Kinase Profiler service)
Sequence (Q12866 21-999): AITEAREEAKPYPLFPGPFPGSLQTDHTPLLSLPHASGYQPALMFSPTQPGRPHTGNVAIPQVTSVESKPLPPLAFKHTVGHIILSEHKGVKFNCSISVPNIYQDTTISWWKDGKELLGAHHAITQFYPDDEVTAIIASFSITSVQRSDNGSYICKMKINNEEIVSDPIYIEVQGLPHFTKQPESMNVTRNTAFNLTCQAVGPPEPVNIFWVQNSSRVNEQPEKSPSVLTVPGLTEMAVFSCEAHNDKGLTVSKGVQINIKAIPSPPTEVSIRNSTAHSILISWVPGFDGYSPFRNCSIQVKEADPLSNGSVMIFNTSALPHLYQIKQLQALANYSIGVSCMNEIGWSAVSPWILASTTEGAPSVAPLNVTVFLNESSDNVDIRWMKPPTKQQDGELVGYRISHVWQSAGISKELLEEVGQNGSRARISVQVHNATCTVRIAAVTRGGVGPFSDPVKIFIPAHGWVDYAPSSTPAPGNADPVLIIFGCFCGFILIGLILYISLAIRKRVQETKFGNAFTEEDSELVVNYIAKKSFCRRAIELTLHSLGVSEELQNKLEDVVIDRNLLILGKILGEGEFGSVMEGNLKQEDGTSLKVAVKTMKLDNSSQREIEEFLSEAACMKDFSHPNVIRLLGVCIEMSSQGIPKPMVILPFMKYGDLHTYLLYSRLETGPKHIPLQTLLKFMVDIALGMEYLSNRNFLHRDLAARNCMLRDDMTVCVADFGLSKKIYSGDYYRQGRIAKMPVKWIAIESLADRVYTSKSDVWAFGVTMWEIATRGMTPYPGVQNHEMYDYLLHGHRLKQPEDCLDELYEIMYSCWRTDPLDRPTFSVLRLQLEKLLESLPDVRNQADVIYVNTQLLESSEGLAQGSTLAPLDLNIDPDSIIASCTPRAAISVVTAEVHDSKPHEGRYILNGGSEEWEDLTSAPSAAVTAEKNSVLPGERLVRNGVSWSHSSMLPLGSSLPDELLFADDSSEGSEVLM
EXPERIMENTAL PROTOCOL: Filter-binding radiometric kinase activity assay (KinaseProfiler, Eurofins)
Type: biochemical
TEST CONDITIONS: 1 µM compound; read-out: % Residual enzymatic activity at 1 µM Mer
RECORDED METRIC: remaining activity at 1 µM (%)

Solved entries:
Nc1ncnc(Sc2ccc(NC(=O)c3cccn(-c4ccc(F)cc4)c3=O)cc2F)c1F [Cmpd 19]	99
Nc1ncnc(Oc2ccc(NC(=O)c3cccn(-c4ccc(F)cc4)c3=O)cc2)c1Cl [Cmpd 4]	19
Nc1ncnc(Nc2ccc(NC(=O)c3cccn(-c4ccc(F)cc4)c3=O)cc2F)c1Cl [Cmpd 36]	99
Nc1ncnc(Oc2ccc(NC(=O)c3cccn(-c4ccc(Cl)cc4)c3=O)cc2F)c1F [Cmpd 34]	103
Nc1ncnc(Oc2cc(F)c(NC(=O)c3cccn(-c4ccc(F)cc4)c3=O)cc2F)c1Cl [Cmpd 21]	30
Nc1ncnc(Oc2ccc(NC(=O)c3cccn(-c4ccc(F)cc4)c3=O)cc2F)c1F [Cmpd 1]	12
Nc1ncnc(Oc2ccc(NC(=O)c3cccn(-c4ccc(F)cc4)c3=O)cc2)c1F [Cmpd 6]	14
Nc1ncnc(Oc2ccc(NC(=O)c3cccn(-c4ccc(F)cc4)c3=O)c(Cl)c2)c1Cl [Cmpd 37]	87
Nc1ncnc(Oc2ccc(NC(=O)c3cccn(-c4ccc(C(F)(F)F)cc4)c3=O)cc2F)c1F [Cmpd 9]	85
Nc1ncnc(Oc2ccc(NC(=O)c3cccn(-c4ccc(F)cc4)c3=O)cc2Cl)c1F [Cmpd 22]	89

(P) Nc1ncnc(Sc2ccc(NC(=O)c3cccn(-c4ccc(F)cc4)c3=O)cc2F)c1Cl [Cmpd 17]
(Q) Nc1ncnc(Oc2ccc(NC(=O)c3cccn(-c4ccc(F)cc4)c3=O)c(F)c2)c1F [Cmpd 7]
Would you mind telling me which has the lower recorded remaining activity at 1 µM between P and Q ? Give the label under which the chosen entry appears.
Q
(Q: 4%, P: 81%)

(a) Nc1ncnc(Sc2ccc(NC(=O)c3cccn(-c4ccc(F)cc4)c3=O)c(F)c2)c1Cl [Cmpd 39]
(b) CCOc1ccn(-c2ccc(F)cc2)c(=O)c1C(=O)Nc1ccc(Oc2ncnc(N)c2Cl)c(F)c1 [Cmpd 2]
(c) Nc1ncnc(Oc2ccc(NC(=O)c3cccn(-c4ccc(F)cc4)c3=O)cc2F)c1Cl [Cmpd 3]
// sort entries: remaining activity at 1 µM, high to low Provide your answer as the labels ordered per the instruction.
a, c, b
(a: 82%, c: 6%, b: 1%)

====

MEASURED TARGET: MET (Homo sapiens, UniProt P08581)
Construct: purchased Eurofins Discovery (Kinase Profiler service)
Sequence (P08581 25-1390): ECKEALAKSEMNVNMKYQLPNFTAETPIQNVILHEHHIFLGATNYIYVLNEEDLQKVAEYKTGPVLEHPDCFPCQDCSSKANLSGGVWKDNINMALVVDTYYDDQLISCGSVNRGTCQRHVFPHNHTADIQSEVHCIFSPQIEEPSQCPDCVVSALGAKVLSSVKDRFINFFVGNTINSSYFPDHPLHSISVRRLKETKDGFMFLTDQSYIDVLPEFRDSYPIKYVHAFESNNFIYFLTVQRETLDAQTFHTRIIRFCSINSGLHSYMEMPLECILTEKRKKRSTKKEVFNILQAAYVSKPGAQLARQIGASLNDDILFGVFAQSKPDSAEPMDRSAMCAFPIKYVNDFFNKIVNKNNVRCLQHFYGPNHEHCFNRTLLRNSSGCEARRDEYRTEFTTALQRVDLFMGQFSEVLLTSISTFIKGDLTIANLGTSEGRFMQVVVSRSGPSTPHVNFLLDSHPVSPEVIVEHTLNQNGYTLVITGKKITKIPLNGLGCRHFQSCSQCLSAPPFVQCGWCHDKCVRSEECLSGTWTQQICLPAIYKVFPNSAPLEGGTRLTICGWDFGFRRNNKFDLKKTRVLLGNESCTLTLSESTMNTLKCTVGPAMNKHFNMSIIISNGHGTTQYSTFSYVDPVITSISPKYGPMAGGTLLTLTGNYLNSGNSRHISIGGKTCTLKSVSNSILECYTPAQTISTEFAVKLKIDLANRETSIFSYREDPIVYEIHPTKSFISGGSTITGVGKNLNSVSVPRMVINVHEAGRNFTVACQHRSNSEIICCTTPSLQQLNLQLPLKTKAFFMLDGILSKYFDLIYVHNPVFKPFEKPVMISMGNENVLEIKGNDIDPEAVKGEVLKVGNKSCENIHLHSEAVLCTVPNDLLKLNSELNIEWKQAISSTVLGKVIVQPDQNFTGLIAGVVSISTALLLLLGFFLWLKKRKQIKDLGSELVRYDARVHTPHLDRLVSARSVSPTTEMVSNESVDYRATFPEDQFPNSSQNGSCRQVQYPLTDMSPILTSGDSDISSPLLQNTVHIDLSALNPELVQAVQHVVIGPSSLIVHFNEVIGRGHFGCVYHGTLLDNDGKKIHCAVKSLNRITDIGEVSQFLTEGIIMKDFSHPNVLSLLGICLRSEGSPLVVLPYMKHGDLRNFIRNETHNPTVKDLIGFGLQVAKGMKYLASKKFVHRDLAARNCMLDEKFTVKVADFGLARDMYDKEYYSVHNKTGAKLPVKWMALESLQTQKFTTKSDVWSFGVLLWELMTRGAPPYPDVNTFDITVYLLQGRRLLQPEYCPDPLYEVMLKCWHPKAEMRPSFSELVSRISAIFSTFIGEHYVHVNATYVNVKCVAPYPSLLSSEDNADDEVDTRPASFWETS
EXPERIMENTAL PROTOCOL: Filter-binding radiometric kinase activity assay (KinaseProfiler, Eurofins)
Assay type: biochemical
TEST CONDITIONS: 1 µM compound; read-out: % Residual enzymatic activity at 1 µM MET
RECORDED METRIC: remaining activity at 1 µM (%)

Known results for molecules:
Nc1ncnc(Sc2ccc(NC(=O)c3cccn(-c4ccc(F)cc4)c3=O)c(F)c2)c1Cl	70
Cc1ccc(-n2cccc(C(=O)Nc3ccc(Oc4ncnc(N)c4Cl)cc3F)c2=O)cc1	74
Nc1ncnc(Oc2ccc(NC(=O)c3cccn(-c4ccc(F)cc4)c3=O)c(Cl)c2)c1Cl	88
Nc1ncnc(Oc2ccc(NC(=O)c3cccn(-c4ccc(Cl)cc4)c3=O)c(F)c2)c1Cl	10
Nc1ncc(Cl)c(Oc2ccc(NC(=O)c3cccn(-c4ccc(F)cc4)c3=O)cc2F)n1	74
Nc1ncnc(Oc2ccc(NC(=O)c3cccn(-c4ccc(F)cc4)c3=O)c(Cl)c2)c1F	68

(P) Nc1ncnc(Oc2ccc(NC(=O)c3cccn(-c4ccc(F)cc4)c3=O)c(F)c2F)c1Cl
(Q) Nc1ncnc(Oc2ccc(NC(=O)c3cccn(-c4ccc(F)cc4)c3=O)cc2)c1F
(R) Nc1ncnc(Oc2cc(F)c(NC(=O)c3cccn(-c4ccc(F)cc4)c3=O)cc2F)c1F
(S) Nc1ncnc(Sc2ccc(NC(=O)c3cccn(-c4ccc(F)cc4)c3=O)cc2F)c1Cl
(T) CCOc1ccn(-c2ccc(F)cc2)c(=O)c1C(=O)Nc1ccc(Oc2ncnc(N)c2Cl)c(F)c1
Sort entries by remaining activity at 1 µM from minimum to maximum value. Could you list the labels in the order requested?
T, R, Q, S, P
(T: 2%, R: 4%, Q: 8%, S: 65%, P: 94%)

====

MEASURED TARGET: TYRO3 (Homo sapiens, UniProt Q06418)
Construct: purchased Eurofins Discovery (Kinase Profiler service)
Sequence (Q06418 41-890): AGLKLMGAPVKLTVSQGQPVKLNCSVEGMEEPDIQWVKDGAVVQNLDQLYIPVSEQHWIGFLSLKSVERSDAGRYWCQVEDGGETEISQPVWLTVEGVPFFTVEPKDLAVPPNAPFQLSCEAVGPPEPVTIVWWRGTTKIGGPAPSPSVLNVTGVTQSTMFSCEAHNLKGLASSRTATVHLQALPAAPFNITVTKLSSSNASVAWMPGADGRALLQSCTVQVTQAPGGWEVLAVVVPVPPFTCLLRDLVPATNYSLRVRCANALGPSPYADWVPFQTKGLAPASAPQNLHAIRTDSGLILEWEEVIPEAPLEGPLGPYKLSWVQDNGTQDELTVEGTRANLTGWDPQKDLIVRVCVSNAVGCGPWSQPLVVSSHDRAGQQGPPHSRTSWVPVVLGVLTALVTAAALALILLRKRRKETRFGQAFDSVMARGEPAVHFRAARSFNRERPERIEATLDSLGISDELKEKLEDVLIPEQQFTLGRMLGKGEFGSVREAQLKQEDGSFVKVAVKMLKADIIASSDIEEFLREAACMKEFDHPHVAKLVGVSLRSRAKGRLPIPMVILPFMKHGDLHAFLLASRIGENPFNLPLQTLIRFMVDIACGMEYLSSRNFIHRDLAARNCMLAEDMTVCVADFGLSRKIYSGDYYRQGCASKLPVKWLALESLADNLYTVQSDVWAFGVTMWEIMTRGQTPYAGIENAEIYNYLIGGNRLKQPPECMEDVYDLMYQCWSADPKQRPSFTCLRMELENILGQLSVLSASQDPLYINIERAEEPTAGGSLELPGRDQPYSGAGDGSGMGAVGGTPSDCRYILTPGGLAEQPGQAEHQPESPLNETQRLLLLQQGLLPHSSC
EXPERIMENTAL PROTOCOL: Filter-binding radiometric kinase activity assay (KinaseProfiler, Eurofins)
Assay type: biochemical
TEST CONDITIONS: 1 µM compound; read-out: % Residual enzymatic activity at 1 µM TYRO3
RECORDED METRIC: remaining activity at 1 µM (%)

Completed entries (count: 2):
Cc1ccc(-n2cccc(C(=O)Nc3ccc(Oc4ncnc(N)c4Cl)cc3F)c2=O)cc1	39
Nc1ncnc(Oc2ccc(NC(=O)c3cccn(-c4ccc(Cl)cc4)c3=O)c(F)c2)c1Cl	6

(a) Nc1ncnc(Oc2ccc(NC(=O)c3cccn(-c4ccc(C(F)(F)F)cc4)c3=O)cc2F)c1F
(b) Nc1ncnc(Oc2ccc(NC(=O)c3cccn(-c4ccc(F)cc4)c3=O)cc2Cl)c1Cl
Of a and b , which shows the smaller remaining activity at 1 µM value? Mark your selection by writing its label.
b
(b: 63%, a: 106%)

====

System: FLT3-ITD
EXPERIMENTAL PROTOCOL: ADP Glo Kinase assay
Type: biochemical
TEST CONDITIONS: 1 µM compound
RECORDED METRIC: % Residual enzymatic activity at 1 µM FLT3-ITD (%)

Nc1ncnc(Oc2ccc(NC(=O)c3cccn(-c4ccc(F)cc4)c3=O)cc2Cl)c1Cl	51
CCOc1ccn(-c2ccc(F)cc2)c(=O)c1C(=O)Nc1ccc(Oc2ncnc(N)c2Cl)c(F)c1	52
Nc1ncnc(Oc2ccc(NC(=O)c3cccn(-c4ccc(F)cc4)c3=O)cc2F)c1Cl	49

====

MEASURED TARGET: Mer (Homo sapiens, UniProt Q12866)
Construct: purchased Eurofins Discovery (Kinase Profiler service)
EXPERIMENTAL PROTOCOL: Filter-binding radiometric kinase activity assay (KinaseProfiler, Eurofins)
Assay type: biochemical
TEST CONDITIONS: 1 µM compound; read-out: % Residual enzymatic activity at 1 µM Mer
RECORDED METRIC: remaining activity at 1 µM (%)

Nc1ncnc(Oc2ccc(NC(=O)c3cccn(-c4ccc(Cl)cc4)c3=O)c(F)c2)c1Cl	74
Nc1ncc(Cl)c(Oc2ccc(NC(=O)c3cccn(-c4ccc(F)cc4)c3=O)c(F)c2)n1	88
Cc1ccc(-n2cccc(C(=O)Nc3ccc(Oc4ncnc(N)c4F)c(F)c3)c2=O)cc1	99
